B1: PIP5K1C peptide 640-655 (Phosphatidylinositol 4-phosphate 5-kinase type-1 gamma), 16-mer library wild type / TLN1 PTB (TLN1 Phosphotyrosine-binding (PTB) domain, residues 309-401) (parent)
chain 1: FPTDERSWVYSPLHYS
chain 2: GVSFFLVKEKMKGKNKLVPRLLGITKECVMRVDEKTKEVIQEWNLTNIKRWAASPKSFTLDFGDYQDGYYSVQTTEGEQIAQLIAGYIDIILK

Variants of: B1
Assay: proteomic peptide phage display deep mutational scan (ProP-PD DMS): M13 P8 16-mer library selected against immobilised GST-tagged bait for four days (rounds), NGS of the eluted pools per day and pseudo-replica
Details: with TLN1 PTB (TLN1 Phosphotyrosine-binding (PTB) domain, residues 309-401); bait immobilised on MaxiSorp plates (10 µg), library pre-cleared on GST, 2 h binding at 4 °C, five washes; one round per day, days 1-4; value from days 2 and 3; keep out of graded; scale: average fractional NGS count over selection days 2 and 3
Labelling field: enter TRUE if recorded screen value is less than 0.0002. Enter FALSE if it equals or exceeds that cut-off.

| variant-string | answer-label |
| --- | --- |
| chain 1 T3D | TRUE |
| chain 1 Y15N | TRUE |
| chain 1 Y10V | FALSE |

query: Identify whether the variant chain 1 Y10R records screen value below 0.0002.
result: FALSE

query: Identify whether the variant chain 1 D4M records screen value below 0.0002.
result: TRUE

query: Identify whether the variant chain 1 Y15Q records screen value below 0.0002.
result: TRUE

query: Identify whether the variant chain 1 V9G records screen value below 0.0002.
result: TRUE

query: Identify whether the variant chain 1 S7L records screen value below 0.0002.
result: TRUE

query: Identify whether the variant chain 1 P12R records screen value below 0.0002.
result: FALSE

query: Identify whether the variant chain 1 H14V records screen value below 0.0002.
result: FALSE

query: Identify whether the variant chain 1 R6N records screen value below 0.0002.
result: TRUE

query: Identify whether the variant chain 1 H14G records screen value below 0.0002.
result: FALSE

query: Identify whether the variant chain 1 E5H records screen value below 0.0002.
result: FALSE

The origin of these recorded values is paper PMC12102759.
